Experiment: Extended room temperature storage of treprostinil monohydrate lot D-1007-089 (18-month stability summary: water content, assay/impurity profile)
Assay type: physicochemical
Settings: 2 Months, Container 1 (closed), room temperature

# COMPOUND, UNIT_STRING, 751W93
rows = [
    ("CCCCC[C@H](O)CC[C@@H]1[C@H]2Cc3cccc(OCC(=O)O)c3C[C@H]2C[C@H]1O [TREPROSTINIL Lot# D-1007-089, treprostinil monohydrate]", "%", 0.04),
]

---

Assay: Extended room temperature storage of treprostinil monohydrate lot D-1007-089 (18-month stability summary: water content, assay/impurity profile)
Format: physicochemical
Settings: 3 Months, Container 2 (covered with Kimwipe), room temperature

# MOLECULE, UNIT_STRING, TREPROSTINIL Ethyl Ester
rows = [
    ("CCCCC[C@H](O)CC[C@@H]1[C@H]2Cc3cccc(OCC(=O)O)c3C[C@H]2C[C@H]1O [TREPROSTINIL Lot# D-1007-089, treprostinil monohydrate]", "%", 0.2),
]

---

Assay: Extended room temperature storage of treprostinil monohydrate lot D-1007-089 (18-month stability summary: water content, assay/impurity profile)
Assay type: physicochemical
Conditions: 18 Month, Container 2 (covered with Kimwipe), room temperature

# COMPOUND, Total impurities (%)
measured = [
    ("CCCCC[C@H](O)CC[C@@H]1[C@H]2Cc3cccc(OCC(=O)O)c3C[C@H]2C[C@H]1O [TREPROSTINIL Lot# D-1007-089, treprostinil monohydrate]", 0.05),
]

---

Test: Extended room temperature storage of treprostinil monohydrate lot D-1007-089 (18-month stability summary: water content, assay/impurity profile)
Format: physicochemical
Conditions: 12 Months, Container 1 (closed), room temperature
Description: 2. UT Stability Summary (18-month) for monohydrate lot # D-1007-089 A 3.4-kg sample of treprostinil diethanolamine salt was dissolved in 36 L of sterile water, 60 L of ethyl acetate and 3.6 L of 3 M HCl were added and the mixture stirred. The layers were separated and the aqueous layer was extracted thrice with 20-L portions of ethyl acetate. […]

# COMPOUND, 750W93 [%]
rows = [
    ("CCCCC[C@H](O)CC[C@@H]1[C@H]2Cc3cccc(OCC(=O)O)c3C[C@H]2C[C@H]1O [TREPROSTINIL Lot# D-1007-089, treprostinil monohydrate]", 0.09),
]

---

Test: Extended room temperature storage of treprostinil monohydrate lot D-1007-089 (18-month stability summary: water content, assay/impurity profile)
Type: physicochemical
Conditions: 6 Months, Container 2 (covered with Kimwipe), room temperature

# COMPOUND, 751W93, %
rows = [
    ("CCCCC[C@H](O)CC[C@@H]1[C@H]2Cc3cccc(OCC(=O)O)c3C[C@H]2C[C@H]1O [TREPROSTINIL Lot# D-1007-089, treprostinil monohydrate]", 0.04),
]

---

Test: Extended room temperature storage of treprostinil monohydrate lot D-1007-089 (18-month stability summary: water content, assay/impurity profile)
Type: physicochemical
Conditions: 1 Month, Container 2 (covered with Kimwipe), room temperature
Description: 2. UT Stability Summary (18-month) for monohydrate lot # D-1007-089 A 3.4-kg sample of treprostinil diethanolamine salt was dissolved in 36 L of sterile water, 60 L of ethyl acetate and 3.6 L of 3 M HCl were added and the mixture stirred. The layers were separated and the aqueous layer was extracted thrice with 20-L portions of ethyl acetate. […]
METRIC_NAME: 751W93

# MOLECULE, METRIC_NAME, RESULT_VALUE
rows = [
    ("CCCCC[C@H](O)CC[C@@H]1[C@H]2Cc3cccc(OCC(=O)O)c3C[C@H]2C[C@H]1O [TREPROSTINIL Lot# D-1007-089, treprostinil monohydrate]", "751W93", "0.04%"),
]

---

Test: Extended room temperature storage of treprostinil monohydrate lot D-1007-089 (18-month stability summary: water content, assay/impurity profile)
Format: physicochemical
Settings: 1 Month, Container 1 (closed), room temperature
METRIC_NAME: 751W93 (%)

# COMPOUND, METRIC_NAME, UNIT_STRING, RESULT_VALUE
rows = [
    ("CCCCC[C@H](O)CC[C@@H]1[C@H]2Cc3cccc(OCC(=O)O)c3C[C@H]2C[C@H]1O [TREPROSTINIL Lot# D-1007-089, treprostinil monohydrate]", "751W93", "%", 0.04),
]

---

Assay: Extended room temperature storage of treprostinil monohydrate lot D-1007-089 (18-month stability summary: water content, assay/impurity profile)
Assay type: physicochemical
Settings: 2 Months, Container 2 (covered with Kimwipe), room temperature
METRIC_NAME: TREPROSTINIL Ethyl Ester (%)

# MOLECULE, UNIT_STRING, RESULT_VALUE
data = [
    ("CCCCC[C@H](O)CC[C@@H]1[C@H]2Cc3cccc(OCC(=O)O)c3C[C@H]2C[C@H]1O [TREPROSTINIL Lot# D-1007-089, treprostinil monohydrate]", "%", 0.2),
]

---

Assay: Extended room temperature storage of treprostinil monohydrate lot D-1007-089 (18-month stability summary: water content, assay/impurity profile)
Format: physicochemical
Conditions: 12 Months, Container 1 (closed), room temperature

# COMPOUND, TREPROSTINIL Ethyl Ester / %
records = [
    ("CCCCC[C@H](O)CC[C@@H]1[C@H]2Cc3cccc(OCC(=O)O)c3C[C@H]2C[C@H]1O [TREPROSTINIL Lot# D-1007-089, treprostinil monohydrate]", 0.2),
]

---

Assay: Extended room temperature storage of treprostinil monohydrate lot D-1007-089 (18-month stability summary: water content, assay/impurity profile)
Type: physicochemical
Conditions: 18 Month, Container 1 (closed), room temperature
Description: 2. UT Stability Summary (18-month) for monohydrate lot # D-1007-089 A 3.4-kg sample of treprostinil diethanolamine salt was dissolved in 36 L of sterile water, 60 L of ethyl acetate and 3.6 L of 3 M HCl were added and the mixture stirred. The layers were separated and the aqueous layer was extracted thrice with 20-L portions of ethyl acetate. […]

# MOLECULE, 750W93
data = [
    ("CCCCC[C@H](O)CC[C@@H]1[C@H]2Cc3cccc(OCC(=O)O)c3C[C@H]2C[C@H]1O [TREPROSTINIL Lot# D-1007-089, treprostinil monohydrate]", "0.09%"),
]

---

Assay: Extended room temperature storage of treprostinil monohydrate lot D-1007-089 (18-month stability summary: water content, assay/impurity profile)
Type: physicochemical
Conditions: Initial, Container 2 (covered with Kimwipe), room temperature

# COMPOUND, UNIT_STRING, Total impurities
rows = [
    ("CCCCC[C@H](O)CC[C@@H]1[C@H]2Cc3cccc(OCC(=O)O)c3C[C@H]2C[C@H]1O [TREPROSTINIL Lot# D-1007-089, treprostinil monohydrate]", "%", 0.5),
]

---

Experiment: Extended room temperature storage of treprostinil monohydrate lot D-1007-089 (18-month stability summary: water content, assay/impurity profile)
Format: physicochemical
Conditions: 6 Months, Container 1 (closed), room temperature

# MOLECULE, Total impurities (%)
measured = [
    ("CCCCC[C@H](O)CC[C@@H]1[C@H]2Cc3cccc(OCC(=O)O)c3C[C@H]2C[C@H]1O [TREPROSTINIL Lot# D-1007-089, treprostinil monohydrate]", 0.6),
]

---

Assay: Extended room temperature storage of treprostinil monohydrate lot D-1007-089 (18-month stability summary: water content, assay/impurity profile)
Format: physicochemical
Settings: 18 Month, Container 2 (covered with Kimwipe), room temperature

# COMPOUND, 751W93
data = [
    ("CCCCC[C@H](O)CC[C@@H]1[C@H]2Cc3cccc(OCC(=O)O)c3C[C@H]2C[C@H]1O [TREPROSTINIL Lot# D-1007-089, treprostinil monohydrate]", "< 0.05%"),
]

---

Assay: Extended room temperature storage of treprostinil monohydrate lot D-1007-089 (18-month stability summary: water content, assay/impurity profile)
Assay type: physicochemical
Conditions: 12 Months, Container 2 (covered with Kimwipe), room temperature
METRIC_NAME: 751W93

# MOLECULE, RESULT_VALUE
data = [
    ("CCCCC[C@H](O)CC[C@@H]1[C@H]2Cc3cccc(OCC(=O)O)c3C[C@H]2C[C@H]1O [TREPROSTINIL Lot# D-1007-089, treprostinil monohydrate]", "< 0.05%"),
]

---

Experiment: Extended room temperature storage of treprostinil monohydrate lot D-1007-089 (18-month stability summary: water content, assay/impurity profile)
Type: physicochemical
Conditions: 3 Months, Container 1 (closed), room temperature
METRIC_NAME: 750W93 (%)

# COMPOUND, UNIT_STRING, RESULT_VALUE
measured = [
    ("CCCCC[C@H](O)CC[C@@H]1[C@H]2Cc3cccc(OCC(=O)O)c3C[C@H]2C[C@H]1O [TREPROSTINIL Lot# D-1007-089, treprostinil monohydrate]", "%", 0.09),
]
